Tested on: HBV
test-summary: Secreted HBeAg by immunoassay in HBV-infected PHH
Type: cell-based
condition-info: Hepatitis B virus, read-out: HBeAg EC50, PHH donor Hu7272; HBV GTD; treated every three to four days for 14 days
Protocol: Approximately 24 hours after plating, PHH were infected with HepAD38-derived GTD virus at 500 viral genome equivalents per cell in maintenance medium supplemented with 4% PEG 8000 (Promega, Madison, WI; V3011). […] Hepatitis B e antigen (HBeAg) and Hepatitis B surface antigen (HBsAg) were detected in culture media at the indicated time by ELISA or electrochemiluminescence assay (MSD). […] Concentrations were calculated by interpolation from standard curves with purified HBeAg and HBsAg. […]
observable: EC50 (nM)
Please state the figure in nM; there is no need to write the unit.

Need EC50, item CCOC(=O)c1ccnc(CNCC(=O)N(CC)CCN(C)C)c1
610

---

System: PHH
test-summary: Cytotoxicity in HBV-infected PHH (50% decrease in GAPDH or RPLP0)
Type: cell-based, human
condition-info: PHH donor; treated every three to four days for 14 days
The entries below come with measured CC50 values attached.

- compound: "CCOC(=O)c1cc(CNCC(=O)N(CC)CCN(C)C)ncc1Br [GS-420]"
  tgt: "PHH"
  CC50: "> 10 µM"

API: value(readout=CC50, system=PHH) for record CCOC(=O)c1ccnc(CNCC(=O)N(CC)CCN(C)C)c1 [GS-5801]
> 10 µM

---

test-summary: Cell-associated GS-080 exposure and half-life in PHH (LC-MS)
Type: in vitro ADME, human
condition-info: human, primary human hepatocytes (PHH), cell-associated; PHH; 1 uM; uninfected PHH
observable: half-life at 1 µM

Need half-life at 1 µM, item CCN(CCN(C)C)C(=O)CNCc1cc(C(=O)O)ccn1
42 to 66 h

---

Tested on: HBV
test-summary: Secreted HBsAg by immunoassay in HBV-infected PHH
Type: cell-based
condition-info: Hepatitis B virus, read-out: HBsAg EC50, PHH donor Hu7272; HBV GTD; treated every three to four days for 14 days
observable: EC50 (µM)
Please state the figure in µM; there is no need to write the unit.

Need EC50, item CCOC(=O)c1ccnc(CNCC(=O)N(CC)CCN(C)C)c1
5.1

---

test-summary: Cytotoxicity in HBV-infected PHH (50% decrease in GAPDH or RPLP0)
Type: cell-based, human
condition-info: human, HBV-infected primary human hepatocytes (PHH); PHH donor Hu8181; treated every three to four days for 14 days
observable: CC50 at 14 days

- smiles-repr: "CCOC(=O)c1ccnc(CNCC(=O)N(CC)CCN(C)C)c1"
  CC50 at 14 days: "> 10 µM"

Need CC50 at 14 days, item CCOC(=O)c1cc(CNCC(=O)N(CC)CCN(C)C)ncc1Br
> 10 µM

---

tgt: HMT or HDAC enzymes
test-summary: Panel of HMT and HDAC enzymes
condition-info: no measurable inhibitory activity; read-out: IC50 against any of the HMT or HDAC enzymes tested
observable: IC50

Need IC50, item CCN(CCN(C)C)C(=O)CNCc1cc(C(=O)O)ccn1 [GS-080]
> 100 µM

---

Tested on: HBV
test-summary: Secreted HBsAg by immunoassay in HBV-infected PHH
Assay type: cell-based
condition-info: Hepatitis B virus, read-out: HBsAg EC50, PHH donor Hu276; HBV GTD; treated every three to four days for 14 days
observable: EC50

- smiles-repr: "CCOC(=O)c1ccnc(CNCC(=O)N(CC)CCN(C)C)c1"
  observable: "EC50"
  data-value: "150 nM"

// moving on: another record for EC50
Need EC50, item CCOC(=O)c1cc(CNCC(=O)N(CC)CCN(C)C)ncc1Br
> 10000 nM

---

Tested on: HBV
test-summary: Secreted HBeAg by immunoassay in HBV-infected PHH
Type: cell-based
condition-info: Hepatitis B virus, read-out: HBeAg EC50, PHH infected with HBV GTD; treated every three to four days for 13 days (Table 3)
observable: pEC50
FYI, pEC50 means -log10 of a concentration in mol per litre.

Need pEC50, item CCOC(=O)c1ccnc(CNCC(=O)N(CC)CCN(C)C)c1 [GS-5801]
6.52

---

The entries below come with measured CC50 values attached.
System: PHH
test-summary: Cytotoxicity in HBV-infected PHH (50% decrease in GAPDH or RPLP0)
Type: cell-based, human
condition-info: PHH donor Hu8130; treated every three to four days for 14 days

- smiles-repr: "CCOC(=O)c1cc(CNCC(=O)N(CC)CCN(C)C)ncc1Br"
  data-value: "> 10 µM"

// moving on: another record for CC50
API: value(readout=CC50, system=PHH) for record CCOC(=O)c1ccnc(CNCC(=O)N(CC)CCN(C)C)c1
> 10 µM

---

Test system: HBV
test-summary: Secreted HBsAg by immunoassay in HBV-infected PHH
Type: cell-based
condition-info: Hepatitis B virus, 336 h, read-out: EC50 range for secreted HBsAg, range over the seven PHH donors tested; HBV GTD; Day 14
observable: EC50

Need EC50, item CCOC(=O)c1ccnc(CNCC(=O)N(CC)CCN(C)C)c1
15 to 1700 nM

---

tgt: UniProtKB Q96KQ7
Sequence (Q96KQ7 786-1210): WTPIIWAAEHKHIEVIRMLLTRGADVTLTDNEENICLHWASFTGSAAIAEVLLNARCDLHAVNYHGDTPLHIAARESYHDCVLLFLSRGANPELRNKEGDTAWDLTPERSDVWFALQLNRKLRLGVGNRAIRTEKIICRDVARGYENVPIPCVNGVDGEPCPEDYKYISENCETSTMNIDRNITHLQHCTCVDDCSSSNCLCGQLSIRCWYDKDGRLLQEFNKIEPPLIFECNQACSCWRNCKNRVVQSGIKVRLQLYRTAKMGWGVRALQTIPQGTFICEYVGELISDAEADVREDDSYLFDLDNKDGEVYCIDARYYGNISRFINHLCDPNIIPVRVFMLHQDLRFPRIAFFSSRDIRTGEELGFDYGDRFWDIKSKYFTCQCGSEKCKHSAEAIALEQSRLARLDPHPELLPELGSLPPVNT
observable: IC50

Need IC50, item CCN(CCN(C)C)C(=O)CNCc1cc(C(=O)O)ccn1 [GS-080]
> 100 µM

---

Tested on: PHH
test-summary: Cytotoxicity in HBV-infected PHH (50% decrease in GAPDH or RPLP0)
Type: cell-based, human
condition-info: PHH donor Hu4167; treated every three to four days for 14 days
The entries below come with measured CC50 values attached.

Need CC50, item CCOC(=O)c1cc(CNCC(=O)N(CC)CCN(C)C)ncc1Br
> 10 µM

Here is the next compound: CCOC(=O)c1ccnc(CNCC(=O)N(CC)CCN(C)C)c1
> 10 µM

---

tgt: KDM6A (Homo sapiens, UniProt O15550)
Sequence (O15550 whole entry): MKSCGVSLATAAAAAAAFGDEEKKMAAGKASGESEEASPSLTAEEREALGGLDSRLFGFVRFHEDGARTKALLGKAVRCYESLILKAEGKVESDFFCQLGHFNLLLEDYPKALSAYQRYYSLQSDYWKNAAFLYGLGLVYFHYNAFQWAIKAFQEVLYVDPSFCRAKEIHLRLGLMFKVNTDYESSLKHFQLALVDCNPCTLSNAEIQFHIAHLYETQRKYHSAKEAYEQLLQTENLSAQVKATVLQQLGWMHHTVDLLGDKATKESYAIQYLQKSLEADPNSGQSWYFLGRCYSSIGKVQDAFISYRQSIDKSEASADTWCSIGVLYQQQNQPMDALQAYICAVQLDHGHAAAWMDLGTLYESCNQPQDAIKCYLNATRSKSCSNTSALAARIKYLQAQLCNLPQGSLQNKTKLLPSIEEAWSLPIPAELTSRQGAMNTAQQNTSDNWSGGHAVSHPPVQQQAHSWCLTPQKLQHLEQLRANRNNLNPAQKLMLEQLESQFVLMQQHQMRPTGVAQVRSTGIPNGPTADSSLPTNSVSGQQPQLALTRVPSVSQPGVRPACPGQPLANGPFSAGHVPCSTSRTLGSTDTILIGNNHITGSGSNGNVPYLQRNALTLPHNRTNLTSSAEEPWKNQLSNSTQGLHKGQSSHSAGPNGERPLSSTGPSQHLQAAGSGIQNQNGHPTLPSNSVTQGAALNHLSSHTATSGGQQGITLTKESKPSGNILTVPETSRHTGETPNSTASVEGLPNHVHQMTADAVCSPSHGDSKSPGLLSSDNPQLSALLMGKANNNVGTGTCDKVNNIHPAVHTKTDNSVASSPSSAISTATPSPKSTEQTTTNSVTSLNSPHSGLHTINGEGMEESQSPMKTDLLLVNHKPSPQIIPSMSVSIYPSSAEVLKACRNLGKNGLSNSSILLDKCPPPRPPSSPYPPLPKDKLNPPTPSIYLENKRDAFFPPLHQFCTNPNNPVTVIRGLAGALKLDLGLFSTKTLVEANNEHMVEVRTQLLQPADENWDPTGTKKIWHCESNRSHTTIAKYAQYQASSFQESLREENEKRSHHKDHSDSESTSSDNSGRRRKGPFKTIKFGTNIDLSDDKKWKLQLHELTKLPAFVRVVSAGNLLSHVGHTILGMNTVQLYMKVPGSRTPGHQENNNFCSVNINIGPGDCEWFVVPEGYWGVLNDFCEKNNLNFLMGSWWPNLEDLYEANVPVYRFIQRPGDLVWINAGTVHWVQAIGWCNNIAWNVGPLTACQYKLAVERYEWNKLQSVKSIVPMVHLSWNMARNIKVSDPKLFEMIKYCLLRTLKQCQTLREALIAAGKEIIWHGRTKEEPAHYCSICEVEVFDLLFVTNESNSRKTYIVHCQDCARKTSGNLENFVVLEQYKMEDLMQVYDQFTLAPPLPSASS
observable: pIC50
FYI, pIC50 means -log10 of a concentration in mol per litre.

API: value(readout=pIC50, system=KDM6A (Homo sapiens, UniProt O15550)) for record O=C(O)c1ccnc(C(=O)O)c1 [PDCA, 2,4-Pyridinedicarboxylic acid, reference compound]
4.00

---

tgt: GLP (Homo sapiens, UniProt Q9H9B1)
Construct: 894-1298; purchased RBC (read as Reaction Biology Corporation, named)
Sequence (Q9H9B1 894-1298): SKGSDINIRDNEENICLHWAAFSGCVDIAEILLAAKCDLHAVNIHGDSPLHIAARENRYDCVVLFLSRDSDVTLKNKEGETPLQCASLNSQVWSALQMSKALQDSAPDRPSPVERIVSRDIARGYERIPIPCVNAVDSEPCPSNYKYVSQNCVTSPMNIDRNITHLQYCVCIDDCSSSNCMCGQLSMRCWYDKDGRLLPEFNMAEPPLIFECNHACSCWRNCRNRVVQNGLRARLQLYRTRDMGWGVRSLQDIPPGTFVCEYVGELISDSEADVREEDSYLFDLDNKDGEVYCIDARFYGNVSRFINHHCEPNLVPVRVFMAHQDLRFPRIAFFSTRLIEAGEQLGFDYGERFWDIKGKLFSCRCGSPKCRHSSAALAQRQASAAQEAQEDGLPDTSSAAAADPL
test-summary: Histone methyltransferase enzymatic assay, GLP
Format: biochemical
condition-info: enzyme conc. 100 nM; read-out: IC50
observable: IC50

Need IC50, item CCN(CCN(C)C)C(=O)CNCc1cc(C(=O)O)ccn1 [GS-080]
> 100 µM

---

Test system: PHH
test-summary: Cytotoxicity in HBV-infected PHH (50% decrease in GAPDH or RPLP0)
Format: cell-based, human
condition-info: PHH donor Hu276; treated every three to four days for 14 days
observable: CC50

- smiles-repr: "CCOC(=O)c1ccnc(CNCC(=O)N(CC)CCN(C)C)c1"
  CC50: "> 10 µM"

Need CC50, item CCOC(=O)c1cc(CNCC(=O)N(CC)CCN(C)C)ncc1Br
> 10 µM

---

tgt: NSD3 (Homo sapiens, UniProt Q9BZ95)
Sequence (Q9BZ95 1021-1322): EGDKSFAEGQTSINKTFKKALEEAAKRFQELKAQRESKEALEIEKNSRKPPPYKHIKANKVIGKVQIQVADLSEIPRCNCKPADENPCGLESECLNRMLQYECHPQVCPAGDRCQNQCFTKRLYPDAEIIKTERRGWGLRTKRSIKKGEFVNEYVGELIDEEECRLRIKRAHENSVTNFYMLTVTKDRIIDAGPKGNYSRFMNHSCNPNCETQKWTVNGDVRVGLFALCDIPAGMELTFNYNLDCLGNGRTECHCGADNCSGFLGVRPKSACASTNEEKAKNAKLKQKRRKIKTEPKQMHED
observable: IC50
Answer format: value, then unit.

Need IC50, item Nc1ncnc2c1ncn2[C@@H]1O[C@H](CSCC[C@H](N)C(=O)O)[C@@H](O)[C@H]1O [SAH, S-(5′-Adenosyl)-L-homocysteine, reference compound]
15 µM

The measurements presented in this section are drawn from paper PMC9728921.
